- target-system: T1, TNFR1 (Homo sapiens, UniProt P19438)
- T1 chain: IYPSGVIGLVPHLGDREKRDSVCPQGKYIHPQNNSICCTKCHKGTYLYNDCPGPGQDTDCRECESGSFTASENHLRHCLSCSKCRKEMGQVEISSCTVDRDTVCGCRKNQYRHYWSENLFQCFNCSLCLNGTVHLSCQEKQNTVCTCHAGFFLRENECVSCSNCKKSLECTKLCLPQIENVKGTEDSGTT
- test-description: yeast display SC50
Listing: apparent Kd (screen) of selected binders
Provide the reading as a plain figure in nM.

# count of solved cases: 3
binder	unit-label	apparent Kd (screen)
P79V (designed binder) MTLQELLREEALRRAEAEAFRYALELLAEKFPEQKEYLLDLAEEIESQIRSLSGVDVEDVRKFLDKEWAWVKELLAEHVAELAEVEAARAARLAELRAEVEAKVAA	nM	0.79
R21N (designed binder) MTLQELLREEALRRAEAEAFNYALELLAEKFPEQKEYLLDLAEEIESQIRSLSGVDVEDVRKFLDKEWAWVKELLAEHPAELAEVEAARAARLAELRAEVEAKVAA	nM	0.653
H78S (designed binder) MTLQELLREEALRRAEAEAFRYALELLAEKFPEQKEYLLDLAEEIESQIRSLSGVDVEDVRKFLDKEWAWVKELLAESPAELAEVEAARAARLAELRAEVEAKVAA	nM	0.79

Turning now to a further binder:
Incoming: What value of apparent Kd (screen) has been recorded for this entry: Q34K (designed binder) MTLQELLREEALRRAEAEAFRYALELLAEKFPEKKEYLLDLAEEIESQIRSLSGVDVEDVRKFLDKEWAWVKELLAEHPAELAEVEAARAARLAELRAEVEAKVAA
Outgoing: 0.653
